Reference for the values: patent US20140005103A1

# CYP2D6 (Homo sapiens): IC50 values follow
# Sequence (P10635 whole entry): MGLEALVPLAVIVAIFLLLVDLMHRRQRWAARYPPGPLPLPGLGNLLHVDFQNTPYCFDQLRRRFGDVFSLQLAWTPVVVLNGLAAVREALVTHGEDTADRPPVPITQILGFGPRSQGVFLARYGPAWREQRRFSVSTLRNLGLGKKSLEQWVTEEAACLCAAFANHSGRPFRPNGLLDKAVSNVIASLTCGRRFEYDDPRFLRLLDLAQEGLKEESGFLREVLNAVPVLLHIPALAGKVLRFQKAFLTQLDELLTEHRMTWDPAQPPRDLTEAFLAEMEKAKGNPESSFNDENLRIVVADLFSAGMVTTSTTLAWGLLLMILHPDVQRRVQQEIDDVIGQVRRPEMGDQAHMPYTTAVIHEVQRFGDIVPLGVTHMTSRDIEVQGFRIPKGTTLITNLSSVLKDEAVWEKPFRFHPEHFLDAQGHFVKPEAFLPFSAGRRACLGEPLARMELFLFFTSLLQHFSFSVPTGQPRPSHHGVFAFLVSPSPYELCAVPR

| Compound | Measured Quantity | Endpoint Value |
| --- | --- | --- |
| C[C@H](c1ccc(F)cc1)n1cncc1CN1CCN(S(=O)(=O)c2cnc(N3CCN4C[C@@H](CN)C[C@H]4C3)s2)CC1 [Compound 10] | IC50 | > 10 µM |

Which IC50 is listed for COC(c1cncn1[C@H](C)c1ccc(F)cc1)C1CCN(S(=O)(=O)c2cnc(Nc3ccc(C(F)(F)F)cn3)s2)CC1 (single isomer, unassigned) [Compound 45b] ?
7.85 µM

Would you kindly share the measured IC50 for C[C@H](c1ccc(F)cc1)n1cncc1C1C(=O)OCC2CN(S(=O)(=O)c3cnc(Nc4ccc(C(F)(F)F)cn4)s3)CCN21 (stereo partly drawn) [Compound 39] ?
2.18 µM

----------
Target: CYP1A2 (Homo sapiens, UniProt P05177)
Construct: 0.1 mg/mL protein human liver microsomes (BD Gentest); tissue BD Gentest; host or cells: human liver microsomes
Sequence (P05177 1-516): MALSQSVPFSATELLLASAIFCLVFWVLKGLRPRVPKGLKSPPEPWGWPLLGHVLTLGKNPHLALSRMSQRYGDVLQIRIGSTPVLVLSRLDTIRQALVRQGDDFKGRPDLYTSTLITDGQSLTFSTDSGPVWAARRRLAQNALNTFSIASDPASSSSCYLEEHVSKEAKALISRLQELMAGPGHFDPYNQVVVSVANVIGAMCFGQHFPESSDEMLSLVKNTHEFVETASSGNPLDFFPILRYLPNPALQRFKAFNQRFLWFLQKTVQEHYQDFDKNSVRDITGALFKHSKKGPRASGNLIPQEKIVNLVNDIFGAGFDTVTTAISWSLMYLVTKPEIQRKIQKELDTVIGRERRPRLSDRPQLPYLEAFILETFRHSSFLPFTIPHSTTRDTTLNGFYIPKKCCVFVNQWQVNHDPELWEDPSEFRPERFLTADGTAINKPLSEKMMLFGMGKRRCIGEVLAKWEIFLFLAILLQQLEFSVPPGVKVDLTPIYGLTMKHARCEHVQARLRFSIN
Experiment: Cocktail CYP assay, phenacetin O-deethylation
Assay type: in vitro ADME
Conditions: human liver microsomes, 10 μM phenacetin; test concentrations up to 10 μM
Listing of entries alongside the reported IC50.

Answered cases to consult:
| Molecule | Measured Target | IC50 |
| --- | --- | --- |
| C[C@H](c1ccc(F)cc1)n1cncc1CN1CCN(S(=O)(=O)c2cnc(N3CC[C@@H]4OCCN[C@H]4C3)s2)CC1 [Compound 14] | CYP1A2 (Homo sapiens, UniProt P05177) | > 10 µM |
| C[C@H](c1ccc(F)cc1)n1cncc1CN1CCN(S(=O)(=O)c2cnc(N3CCN4C[C@H](O)C[C@H]4C3)s2)CC1 | CYP1A2 (Homo sapiens, UniProt P05177) | > 10 µM |
| C[C@H](c1ccc(F)cc1)n1cncc1CN1CCN(S(=O)(=O)c2cnc(N3CCN(C4CCN(C)CC4)CC3)s2)CC1 | CYP1A2 (Homo sapiens, UniProt P05177) | > 10 µM |
| C[C@H](c1ccc(F)cc1)n1cncc1CC1CCN(S(=O)(=O)c2cnc(N3CCN(C)CC3)s2)CC1 | CYP1A2 (Homo sapiens, UniProt P05177) | > 10 µM |
| C[C@H](c1ccc(F)cc1)n1cncc1CN1CCN(S(=O)(=O)c2ccc(N3CCNCC3)cn2)CC1 | CYP1A2 (Homo sapiens, UniProt P05177) | > 10 µM |
| C[C@H](c1ccc(F)cc1)n1cncc1CN1CCN(S(=O)(=O)c2cnc(N3CCC(N)(CO)CC3)s2)CC1 | CYP1A2 (Homo sapiens, UniProt P05177) | > 10 µM |

Below: the item to evaluate.
// lookup IC50 for C[C@H](c1ccc(F)cc1)n1cncc1CN1CCN(S(=O)(=O)c2cnc(N3CCNCC3)cn2)CC1
> 10 µM
